- Test system: primary human airway basal cells (HBEC, luciferase-transduced)
- PROTOCOL DESCRIPTION: proliferation (luciferase bioluminescence) Z score relative to plate mean; higher = more proliferation / more cells, active = 1.96 or more
- TEST PARAMETERS: donor: 1; 0.5 µM; library: ENZO Libraries; 4 days
Entries and their proliferation values follow.
READOUT KIND: proliferation

1) COc1cccc(-c2cc(=O)c3ccccc3o2)c1N :: 2.9
2) CC[C@H](CO)Nc1nc(NCc2ccccc2)c2ncn(C(C)C)c2n1 [Roscovitine] :: -0.00187
3) COc1cc(/C=C(\C#N)C(N)=O)cc(CSc2nc3ccccc3s2)c1O :: -0.428
4) Cn1cnc2nc(NCCO)nc(NCc3ccccc3)c21 [Iso-olomoucine] :: 0.048
5) COc1cc2nc(N3CCCN(C)CC3)nc(NC3CCN(Cc4ccccc4)CC3)c2cc1OC :: -0.123
6) CC(C)C[C@H](NP(=O)(O)O[C@@H]1O[C@@H](C)[C@H](O)[C@@H](O)[C@H]1O)C(=O)N[C@@H](Cc1c[nH]c2ccccc12)C(=O)O [Phosphoramidon] :: -0.109
7) CNC(=O)[C@H](Cc1c[nH]c2ccccc12)NC(=O)[C@@H](CC(=O)NO)CC(C)C :: -0.298
8) COc1cc2ncc(-c3ccccc3)nc2cc1OC :: 2.2
9) COCc1cc(O)c(O)c(O)c1-c1c(COC)cc(O)c(O)c1O :: -0.578
